- protocol details: activity coefficient (dimensionless); of the first substance listed, at infinite dilution; xn = mol fraction of the nth substance listed
- conditions: 303.15 K; Liquid; Chromatography; x1 = 0
For each entry below, report its activity coefficient value.

Record excerpt, results attached:
[[record]]
compound = "CCO [ethanol] + CCc1ccccc1"
result = 16.2

[[record]]
compound = "CCCCO [butan-1-ol] + CCc1ccccc1"
result = 11.8


Fill in activity coefficient for each of the 2 compounds listed.
1. CCCO [propan-1-ol] + CCc1ccccc1
2. CO [methanol] + CCc1ccccc1

A)
1. 12.9
2. 21.4

###

For each entry below, report its activity coefficient value.
- protocol details: activity coefficient (dimensionless); of the first substance listed, at infinite dilution; xn = mol fraction of the nth substance listed
- conditions: 323.15 K; Liquid; Chromatography; x1 = 0
Numbers only.

[[record]]
compound = "CCc1ccccc1 [ethylbenzene] + CCCCO"
assay_readout = "activity coefficient"
quantitative_result = 3.84

[[record]]
compound = "CCc1ccccc1 [ethylbenzene] + CCCCCCO"
assay_readout = "activity coefficient"
quantitative_result = 2.77

[[record]]
compound = "CO [methanol] + CCc1ccccc1"
assay_readout = "activity coefficient"
quantitative_result = 15

[[record]]
compound = "CCc1ccccc1 [ethylbenzene] + CCCCCO"
assay_readout = "activity coefficient"
quantitative_result = 3.37

[[record]]
compound = "CCO [ethanol] + CCc1ccccc1"
assay_readout = "activity coefficient"
quantitative_result = 11.2


Fill in activity coefficient for each of the 2 compounds listed.
1. CCCO [propan-1-ol] + CCc1ccccc1
2. CCCCO [butan-1-ol] + CCc1ccccc1

A)
1: 8.7; 2: 7.63
